Recorded measurements of Tm (° C.) Na2HPO4/NaCl/EDTA, one per entry
tested on: 5′-(AAAAAAAAAAAAAA)-3′; assay: Tm of duplex (spectrophotometric melting curves); assay type: binding; conditions: vs RNA 5′-(AAAAAAAAAAAAAA)-3′; 10 mM Na2HPO4 pH 7.0, 100 mM NaCl, 0.1 mM EDTA
Strand notation (5' to 3'): a small letter for the sugar, then the base; units joined by * are phosphorothioate-linked, units joined directly phosphodiester-linked; [ ] holds rarer units or linkages, { } end groups; capitals alone tell only the bases. V = LNA monomer of structure V, bold; X = bicyclic LNA-type nucleotide of structure X in the publication's (LNA marked in bold); Y = bicyclic LNA-type thymidine monomer of structure Y; l = locked nucleic acid (LNA); d = 2'-deoxy (DNA)
Lab book: enter the figure in °C, no units written.

>  <substance>
5′-d(TTTTTTTTTTTTTT)-3′ (SEQ ID NO: 86): partly modified poly-T oligonucleotide with Z^T (46, 47) (DNA dTdTdTdTdTdTlTlTdTdTdTdTdTdT)

>  <measurement_name>
Tm (° C.) Na2HPO4/NaCl/EDTA

>  <value_reported>
40

$$$$
>  <substance>
5′-d(TTTTTTTTTTTTTT)-3′ (SEQ ID NO: 80): unmodified poly-T oligonucleotide (Table 1, 42 and 43) (unmodified DNA) [reference compound]

>  <measurement_name>
Tm (° C.) Na2HPO4/NaCl/EDTA

>  <value_reported>
32

$$$$
>  <substance>
5′-d(TTTTTTTTTTTTTT)-3′ (SEQ ID NO: 92): partly modified poly-T oligonucleotide with Z^T (50, 51) (DNA dTdTdTdTlTdTlTdTlTdTlTdTdTdT)

>  <measurement_name>
Tm (° C.) Na2HPO4/NaCl/EDTA

>  <value_reported>
53

$$$$

Data point: 5′-d(TTTTTTTTTTTTTT)-3′ (SEQ ID NO: 110): partly modified poly-T with monomer V (sugars from the 5' end ddddVdVdVdVddd, backbone not given here) ; Tm (° C.) Na2HPO4/NaCl/EDTA = 16

Data point: 5′-d(TTTTTTTTTTTTTT)-3′ (SEQ ID NO: 141): partly modified poly-T with monomer Y (sugars from the 5' end ddddYdYdYdYddd, backbone not given here) ; Tm (° C.) Na2HPO4/NaCl/EDTA = 36

Data point: 5′-d(TTTTTTTTTTTTTT)-3′ (SEQ ID NO: 117): poly-T containing X^T (sugars from the 5' end d7 X1 d6, backbone not given here) ; Tm (° C.) Na2HPO4/NaCl/EDTA = 23

Data point: 5′-d(TTTTTTTTTTTTTT)-3′ (SEQ ID NO: 123): poly-T containing X^T (sugars from the 5' end d6 X1 d1 X1 d5, backbone not given here) ; Tm (° C.) Na2HPO4/NaCl/EDTA = 15

Data point: 5′-d(TTTTTTTTTT)-3′ (SEQ ID NO: 95): almost fully modified LNA oligomer containing exclusively Z^T (52-56) (LNA Z^T monomers) ; Tm (° C.) Na2HPO4/NaCl/EDTA = 70

Data point: 5′-d(TTTTTTTTTTTTTT)-3′ (SEQ ID NO: 101): partly modified poly-T with monomer V (sugars from the 5' end d6 V2 d6, backbone not given here) ; Tm (° C.) Na2HPO4/NaCl/EDTA = 28
